# System: RPMI-8226 leukemia
# Measurement Description: NCI tumour cell line growth inhibition, 48 h; in the data active = GI50 below about 0.43 µM; inactive = the rest
A correct response names exactly one class from active, inactive

Examples with answers:
C=CCn1c(C)nc2cc(Nc3nc(N4CCCC4)nc4nc[nH]c34)ccc21    inactive
Cc1nc2ccccc2c(/C=C/c2ccc(C(F)(F)F)cc2)c1C(=O)/C=C/c1ccccc1    inactive
O=[N+]([O-])c1cc2c(ccc3ccccc32)o1    inactive
COc1ccc(C(=O)c2no[n+]([O-])c2C(=O)c2ccc(OC)cc2)cc1    inactive
C=CCC(NCc1ccccc1)c1cn(C(=O)OCC)c2ccccc12 (stereo not given)    inactive

Q) Would you mind telling me which call this test gave N#C/C(=C\c1ccccn1)c1nc2ccccc2o1 ?
A) inactive

Q) Then this molecule: COc1cccc2c1C(=O)c1c(O)c3c(c(O)c1C2=O)C[C@@](O)(C(=O)CO)C[C@@H]3OC1CC2C(OCN2CN2COC3C(C)OC(O[C@H]4C[C@](O)(C(=O)CO)Cc5c(O)c6c(c(O)c54)C(=O)c4c(OC)cccc4C6=O)CC32)C(C)O1 (stereo not given in full)
A) active

---

# System: XF 498 CNS
# Measurement Description: NCI tumour cell line growth inhibition, 48 h
Measured TGI, listed per entry.

CC1Nc2ccccc2NC1C=C(C#N)C#N (stereo unspecified)    31.1 µM
CC(=O)CC(=O)Nc1ccc(OS(N)(=O)=O)cc1    > 100 µM
CC(C)CC1CC2C(=O)N(c3ccccc3)C(=O)C2c2[nH]c3ccccc3c21 (stereo unspecified)    48.6 µM
O=C1Sc2sc(=S)sc2SC1c1ccccc1 (stereo unspecified)    > 79.1 µM
C=C1C(=O)OC2/C=C(\CO)C3OC3C3OC3(C)CC(OC(=O)/C(=C/C)COC(C)=O)C12 (stereo unspecified)    4.54 µM

Q) Quick one: TGI of Nc1ccc(C(=O)NN2C(=O)C(Cl)C2c2ccc(O)cc2)cc1 (stereo unspecified) ?
A) 27.8 µM

---

# Tested on: EKVX NSCLC
# Measurement Description: NCI tumour cell line growth inhibition, 48 h
Quantity Measured: TGI (µM)
Just the number in µM, nothing appended.

Known TGI results, listed for orientation:
Cc1cc(O)c(C(O)c2ccccn2)cc1O (stereo unspecified)    36.5
O=C1C=CC(=O)N1c1ccc2ccccc2c1    39.6

Q) Quick one: TGI of Cc1cc(N)c2cc(NC(=O)/C=C\c3ccccc3Cl)ccc2n1 ?
A) 3.1

Q) Then this molecule: COc1cccc(C2c3cc4c(cc3OC(N3CCCC3)C2c2ccccc2)OCO4)c1O (stereo unspecified)
A) 73.3

Q) Then this molecule: CC1=NN(c2nc(N)nc(CCl)n2)C(C)(C)C1
A) 42.1

Q) Then this molecule: C=C1C(=O)OC2/C=C(\CO)C3OC3C3OC3(C)CC(OC(=O)/C(=C/C)COC(C)=O)C12 (stereo unspecified)
A) 9.58

Q) Then this molecule: CCCCCCCCCCCCCCCCNc1nc(=O)n(C2CC(O)C(COP(=O)(O)OC3CC(n4cc(F)c(=O)[nH]c4=O)OC3CO)O2)cc1F (stereo unspecified)
A) 99.3

---

# Tested on: MALME-3M melanoma
# Measurement Description: NCI tumour cell line growth inhibition, 48 h
Measured GI50, listed per entry.

Q) Quick one: GI50 of CCOC(=O)CCC(NC(=O)c1ccc(Oc2nc3cc(N)cc(N)c3nc2-c2ccccc2)cc1)C(=O)OCC (stereo not given) ?
A) 18.5 µM

Q) Then this molecule: Nc1ccccc1SC(CC(=O)c1ccccc1)c1c(Cl)cccc1Cl (stereo not given)
A) 10.8 µM

Q) Then this molecule: Cc1nc2ccccc2c(/C=C/c2ccc(C(F)(F)F)cc2)c1C(=O)/C=C/c1ccccc1
A) 1.6 µM

Q) Then this molecule: O=NN(CC(=O)NNc1ccccc1)CC(=O)NNc1ccccc1
A) 42 µM

Q) Then this molecule: O=S(=O)([O-])c1ccc(C=Nc2ccccc2)c([O-])c1.O=S(=O)([O-])c1ccc(C=Nc2ccccc2)c([O-])c1.[Co+2]
A) 99.1 µM
